Measured values drawn from patent US8252781B2 for this set.

Entries and their log10(IC50)
biological target: mouse 11β-HSD1 (Mus musculus, UniProt P50172); construct: The obtained PCR products of about 0.9 kbp, 1.2 kbp, and 0.9 kbp were subcloned into an expression vector pcDNA3.1+/Zeo; expressed in transfected cells; assay: Enzyme inhibitory activity, mouse 11β-HSD1 (lysate of stably expressing CHO-K1 cells, cortisol by competitive ELISA); type: biochemical; settings: Table 2; mouse 11β-HSD1, cell lysate, 37° C. for 1 hour; read-out: m HSD1 in vitro assay (IC50 uM)
Sequence (P50172 whole entry): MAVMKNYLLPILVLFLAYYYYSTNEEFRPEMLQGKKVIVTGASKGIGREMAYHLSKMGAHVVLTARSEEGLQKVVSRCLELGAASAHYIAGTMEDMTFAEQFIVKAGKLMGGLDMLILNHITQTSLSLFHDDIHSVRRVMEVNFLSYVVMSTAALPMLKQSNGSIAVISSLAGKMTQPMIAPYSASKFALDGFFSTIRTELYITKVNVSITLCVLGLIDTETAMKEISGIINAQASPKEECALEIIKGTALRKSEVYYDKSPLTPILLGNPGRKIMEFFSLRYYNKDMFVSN
RECORDED_ENDPOINT: log10(IC50) (log10 of the value in µM)

COMPOUND | log10(IC50)
CC1(C)C(=O)N(C2CCCCCCC2)N1c1cccc2ccccc12 | -1.06
CC1(C)C(=O)N(C2C3CC4CC(C3)CC2C4)N1Cc1cc(F)ccc1F (centres unmarked) | -0.70
CC1(C)C(=O)N(C2CCCCCC2)N1Cc1cc(F)ccc1Cl | -0.07
Cc1cccc(N2N(C3C4CC5CC(C4)CC3C5)C(=O)C2(C)C)c1C (centres unmarked) | -1.27
CC1(C)C(=O)N(C2CCCCCCC2)N1C(=O)c1ccccc1N | -1.49

----------
biological target: human 11β-HSD1 (Homo sapiens); construct: The obtained PCR products of about 0.9 kbp, 1.2 kbp, and 0.9 kbp were subcloned into an expression vector pcDNA3.1+/Zeo; expressed in transfected cells; assay: Enzyme inhibitory activity, human 11β-HSD1 (lysate of stably expressing HEK293 cells, cortisol by competitive ELISA); assay type: biochemical; conditions: Table 1; human 11β-HSD1, cell lysate, 37° C. for 1 hour; read-out: h HSD1 in vitro assay (IC50 uM)
Sequence (P28845 whole entry): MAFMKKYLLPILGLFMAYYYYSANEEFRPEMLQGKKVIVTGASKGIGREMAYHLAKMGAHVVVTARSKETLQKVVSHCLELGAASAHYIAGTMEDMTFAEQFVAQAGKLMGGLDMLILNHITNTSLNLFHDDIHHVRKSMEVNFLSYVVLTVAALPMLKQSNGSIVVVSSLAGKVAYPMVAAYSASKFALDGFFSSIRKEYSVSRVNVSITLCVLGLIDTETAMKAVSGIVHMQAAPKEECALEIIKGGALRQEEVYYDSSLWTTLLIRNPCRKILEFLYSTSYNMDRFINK
Label key: Yes means IC50 under 0.02 µM; No means IC50 of 0.02 µM or more.

MOLECULE | SYSTEM_TESTED | CAT
CC1(C)C(=O)N(C2C3CC4CC(C3)CC2C4)N1C(=O)c1ccccc1F (centres unmarked) | human 11β-HSD1 (Homo sapiens) | No
Cc1ccc(C(=O)N2N(C3C4CC5CC(C4)CC3C5)C(=O)C2(C)C)c(C)c1 (centres unmarked) | human 11β-HSD1 (Homo sapiens) | No
CC1(C)C(=O)N(C2CCCCCCC2)N1C(=O)c1cccc2ccccc12 | human 11β-HSD1 (Homo sapiens) | No
CC1(C)C(=O)N([C@H]2C3CC4CC2C[C@](C(=O)O)(C4)C3)N1c1cccc2ccccc12 | human 11β-HSD1 (Homo sapiens) | Yes
CC1(C)C(=O)N([C@H]2C3CC4CC2C[C@](C(N)=O)(C4)C3)N1c1cccc(Cl)c1Cl | human 11β-HSD1 (Homo sapiens) | Yes
CC1(C)C(=O)N([C@H]2C3CC4CC2C[C@](O)(C4)C3)N1Cc1ccccc1C(F)(F)F | human 11β-HSD1 (Homo sapiens) | No
Cc1ccccc1C(=O)N1N(C2CCCCCCC2)C(=O)C1(C)C | human 11β-HSD1 (Homo sapiens) | No
CC1(C)C(=O)N(C2C3CC4CC(C3)CC2C4)N1Cc1ccccc1C(F)(F)F (centres unmarked) | human 11β-HSD1 (Homo sapiens) | No
CC1(C)C(=O)N(C2C3CC4CC(C3)CC2C4)N1C(=O)c1ccccc1I (centres unmarked) | human 11β-HSD1 (Homo sapiens) | No
COCOc1ccccc1N1N(C2C3CC4CC(C3)CC2C4)C(=O)C1(C)C (centres unmarked) | human 11β-HSD1 (Homo sapiens) | No
CC1(C)C(=O)N([C@H]2C3CC4CC2C[C@](O)(C4)C3)N1c1ccccc1Cl | human 11β-HSD1 (Homo sapiens) | No
CSc1ccccc1CN1N(C2C3CC4CC(C3)CC2C4)C(=O)C1(C)C (centres unmarked) | human 11β-HSD1 (Homo sapiens) | Yes
CC1(C)C(=O)N([C@H]2C3CC4CC2C[C@](Cl)(C4)C3)N1c1ccccc1O | human 11β-HSD1 (Homo sapiens) | Yes
Cc1ccc(F)cc1C(=O)N1N(C2C3CC4CC(C3)CC2C4)C(=O)C1(C)C (centres unmarked) | human 11β-HSD1 (Homo sapiens) | No
CC1(C)C(=O)N(C2CCCCCCC2)N1C(=O)c1cccc(Cl)c1 | human 11β-HSD1 (Homo sapiens) | No
CC1(C)C(=O)N(C2C3CC4CC(C3)CC2C4)N1Cc1ccccc1-c1ccccc1 (centres unmarked) | human 11β-HSD1 (Homo sapiens) | No
CC1(C)C(=O)N(C2C3CC4CC(C3)CC2C4)N1Cc1ccccc1Br (centres unmarked) | human 11β-HSD1 (Homo sapiens) | Yes

----------
molecular target: mouse 11β-HSD1 (Mus musculus, UniProt P50172); construct: The obtained PCR products of about 0.9 kbp, 1.2 kbp, and 0.9 kbp were subcloned into an expression vector pcDNA3.1+/Zeo; expressed in transfected cells; test: Enzyme inhibitory activity, mouse 11β-HSD1 (lysate of stably expressing CHO-K1 cells, cortisol by competitive ELISA); format: biochemical; conditions: Table 2; mouse 11β-HSD1, cell lysate, 37° C. for 1 hour; read-out: m HSD1 in vitro assay (IC50 uM)
Label key: 1.0 means IC50 under 0.4 µM; 0.0 means IC50 of 0.4 µM or more.

COMPOUND | CAT
CC1(C)C(=O)N(C2C3CC4CC(C3)CC2C4)N1C(=O)c1cccc(Br)c1 (stereo not shown) [Example 113] | 1.0
Cc1ccc(C)c(C(=O)N2N(C3C4CC5CC(C4)CC3C5)C(=O)C2(C)C)c1 (stereo not shown) [Example 161] | 1.0
CC1(C)C(=O)N(C2C3CC4CC(C3)CC2C4)N1Cc1ccc([N+](=O)[O-])cc1 (stereo not shown) [Example 31] | 1.0
CC1(C)C(=O)N(C2C3CC4CC(C3)CC2C4)N1Cc1ccccc1[N+](=O)[O-] (stereo not shown) [Example 47] | 0.0
CC1(C)C(=O)N(C2C3CC4CC(C3)CC2C4)N1Cc1cccc2c1OCO2 (stereo not shown) [Example 61] | 1.0
CC1(C)C(=O)N(C2C3CC4CC(C3)CC2C4)N1c1ccccc1[N+](=O)[O-] (stereo not shown) [Example 188] | 0.0
CC1(C)C(=O)N(C2CCCCCC2)N1Cc1cccc(Cl)c1Cl [Example 84] | 0.0
CC1(C)C(=O)N(C2C3CC4CC(C3)CC2C4)N1C(=O)c1ccc(N)cc1 (stereo not shown) [Example 139] | 1.0
CC1(C)C(=O)N(C2C3CC4CC(C3)CC2C4)N1Cc1ccccc1F (stereo not shown) [Example 38] | 1.0
Cc1cccc(C(=O)N2N(C3CCCCCCC3)C(=O)C2(C)C)c1 [Example 151] | 1.0
CC1(C)C(=O)N(C2C3CC4CC(C3)CC2C4)N1C(=O)c1ccccc1O (stereo not shown) [Example 138] | 1.0

----------
molecular target: human 11β-HSD1 (Homo sapiens); construct: The obtained PCR products of about 0.9 kbp, 1.2 kbp, and 0.9 kbp were subcloned into an expression vector pcDNA3.1+/Zeo; expressed in transfected cells; assay: Enzyme inhibitory activity, human 11β-HSD1 (lysate of stably expressing HEK293 cells, cortisol by competitive ELISA); format: biochemical; conditions: Table 1; human 11β-HSD1, cell lysate, 37° C. for 1 hour; read-out: h HSD1 in vitro assay (IC50 uM)
Label key: t means IC50 under 0.03 µM; f means IC50 of 0.03 µM or more.

COMPOUND | CAT
CC1(C)C(=O)N(C2C3CC4CC(C3)CC2C4)N1c1ccc(O)cc1 (stereo not shown) | t
CC1(C)C(=O)N([C@H]2C3CC4CC2C[C@](O)(C4)C3)N1c1ccccc1 | f
CC1(C)C(=O)N(C2C3CC4CC(C3)CC2C4)N1Cc1ccc(F)cc1C(F)(F)F (stereo not shown) | f
CC1(C)C(=O)N(C2C3CC4CC(C3)CC2C4)N1C(=O)c1ccc(N)cc1 (stereo not shown) | f
CC1(C)C(=O)N(C2C3CC4CC2CC(C(N)=O)(C4)C3)N1c1cccc2ccccc12 (stereo not shown) | t
CC1(C)C(=O)N(C2C3CC4CC(C3)CC2C4)N1c1ccccc1[N+](=O)[O-] (stereo not shown) | f
Cc1ccccc1N1N([C@H]2C3CC4CC2C[C@@](O)(C4)C3)C(=O)C1(C)C | f
CCc1ccccc1C(=O)N1N(C2C3CC4CC(C3)CC2C4)C(=O)C1(C)C (stereo not shown) | f
CC1(C)C(=O)N(C2C3CC4CC2CC(C(N)=O)(C4)C3)N1c1cccc(Cl)c1Cl (stereo not shown) | t
Cc1ccc(C)c(C(=O)N2N(C3C4CC5CC(C4)CC3C5)C(=O)C2(C)C)c1 (stereo not shown) | f
CC1(C)C(=O)N(C2C3CC4CC(C3)CC2C4)N1C(=O)c1ccccc1O (stereo not shown) | f
COc1ccc(N2N([C@H]3C4CC5CC3C[C@](O)(C5)C4)C(=O)C2(C)C)cc1 | f
CC1(C)C(=O)N([C@H]2C3CC4CC2C[C@](C(N)=O)(C4)C3)N1c1cccc2ccccc12 | t
